This collection of values is drawn from ChEMBL document CHEMBL4765331.

Readings of pIC50 for the listed compounds
# Tested on: HL-60
# assay details: Antiproliferative activity against human HL-60 cells assessed as inhibition of cell proliferation measured after 72 hrs by MTT assay
# Format: functional, cell-based
# test settings: HL-60, 72 h
Recall that pIC50 is obtained by taking minus log10 of the concentration measured in molar.

See these solved cases before continuing.
{"columns": ["compound", "observed result"],
 "data": [
  ["Cc1[nH]c2c(O)c3c(c(O)c2c1C(=O)NC1CCCNC1)C(=O)c1ccccc1C3=O (configuration not stated)", 5.74],
  ["CCn1c(C)c(C(=O)N2CC[C@H](N)C2)c2c(O)c3c(c(O)c21)C(=O)c1ccccc1C3=O", 5.96]
]}

Lab note: N[C@H]1CCN(C(=O)c2coc3c(O)c4c(c(O)c23)C(=O)c2ccccc2C4=O)C1 gave pIC50 of 6.30

Per the record, Cc1[nH]c2c(O)c3c(c(O)c2c1C(=O)N1CC[C@@H](N)C1)C(=O)c1ccccc1C3=O has pIC50 of 6.70

* * *

# Test system: HCT-116
# assay details: Antiproliferative activity against human HCT-116 cells assessed as inhibition of cell proliferation measured after 72 hrs by MTT assay
# Type: functional, cell-based
# test settings: HCT-116, 72 h
Form field: IC50 (one value per entry).
Please reply with the bare figure in nM and do not write the unit itself.

{"columns": ["compound", "IC50 [nM]"],
 "data": [
  ["Cc1c(C(=O)N2CC[C@H](N)C2)c2c(O)c3c(c(O)c2n1Cc1ccccc1)C(=O)c1ccccc1C3=O", 1800],
  ["Cc1[nH]c2c(O)c3c(c(O)c2c1C(=O)N1C[C@@H](N)[C@H](N)C1)C(=O)c1ccccc1C3=O", 4800],
  ["Cc1c(C(=O)N2CC[C@H](N)C2)c2c(O)c3c(c(O)c2n1C)C(=O)c1ccccc1C3=O", 1800],
  ["N[C@H]1CCN(C(=O)c2coc3c(O)c4c(c(O)c23)C(=O)c2ccccc2C4=O)C1", 1200]
]}

Consider the additional compound presented here.
Value of IC50 reported for the compound Cc1[nH]c2c(O)c3c(c(O)c2c1C(=O)N1CC[C@H](N)C1)C(=O)c1ccccc1C3=O is 900

* * *

# Tested on: HL-60
# assay details: Antiproliferative activity against human HL-60 cells assessed as inhibition of cell proliferation measured after 72 hrs by MTT assay
# Assay type: functional, cell-based
# test settings: HL-60, 72 h
endpoint: IC50 (nM)
Note: unit nM is implicit; provide only the numeric part.

{"columns": ["compound", "units", "IC50"],
 "data": [
  ["Cc1c(C(=O)N2CC[C@H](N)C2)c2c(O)c3c(c(O)c2n1C)C(=O)c1ccccc1C3=O", "nM", 700],
  ["Cc1c(C(=O)N2CC[C@H](N)C2)c2c(O)c3c(c(O)c2n1Cc1ccccc1)C(=O)c1ccccc1C3=O", "nM", 1100]
]}

Consider now this further molecule.
The recorded IC50 for O=C1c2ccccc2C(=O)c2c1c(O)c1scc(C(=O)N[C@H]3CCNC3)c1c2O is 3900
